I'd appreciate it if you could supply IC50 values for the items below.
Target: Phosphodiesterase 4 (Homo sapiens, UniProt P27815+Q08499+Q07343+Q08493)
Assay: In vitro inhibition of phosphodiesterase (PDE IV) from guinea pig macrophages.
Type: protein assay, Cavia porcellus
Details: target entry is the homologue from another species
Could you give me the number in nM? Just the number is fine.

Query IC50 for COc1ccc(C2(Cc3ccncc3)CCN(Cc3ccc4ccccc4c3)C2=O)cc1OC1CCCC1 (stereo not drawn) 17

Dear colleague, please send me the reported IC50 for COc1ccc(C2(Cc3ccncc3)CCN(CC3CCCCC3)C2=O)cc1OC1CCCC1 (stereo not drawn) when you can. 48

// fetch IC50 given entry COc1ccc(C2(Cc3ccncc3)CCNC2=O)cc1OC1CCCC1 (stereo not drawn) 800
